molecular target: Triosephosphate isomerase, glycosomal (Trypanosoma cruzi); test: Inhibition of Trypanosoma cruzi triosephosphate isomerase at 400 uM after 2 hrs
Would you please tag the item True when its inhibition is 40% or above, and False when it is below?

>>> group_label("O=c1c2cc([N+](=O)[O-])ccc2n2n1CCCCC2")
"False"
>>> group_label("Cc1c(C)[n+]([O-])c2cc(C=O)ccc2[n+]1[O-]")
"False"
>>> group_label("C=CCNC(=S)N/N=C/c1ccco1")
"False"
>>> group_label("Cc1ccc(-c2nsc(=O)[nH]2)cc1")
"True"
>>> group_label("CCCCCCCNC(=O)N/N=C/c1ccc([N+](=O)[O-])o1")
"True"
>>> group_label("CCCCCCOC(=O)N/N=C/c1no[n+]([O-])c1C")
"False"
>>> group_label("C=CCNC(=S)N/N=C/c1ccc2c(c1)=[N+]([O-])C(C)(C)[N+]=2[O-]")
"False"
>>> group_label("CC1=CC(=N/O)/C(=N\\O)C=C1")
"True"

q: Confirm if inhibition reported for the molecule C=CCNC(=S)N/N=C\c1ccccc1OCc1ccc2no[n+]([O-])c2c1 is 40% or above.
a: True

q: Confirm if inhibition reported for the molecule O=C(N/N=C/c1ccc([N+](=O)[O-])o1)Nc1ccc2ccccc2c1 is 40% or above.
a: True

q: Confirm if inhibition reported for the molecule Oc1ccc(N/C(S)=N/c2ccccc2)cc1 is 40% or above.
a: False

q: Confirm if inhibition reported for the molecule CCCCNC(=O)N/N=C/c1c(C)no[n+]1[O-] is 40% or above.
a: False

* * *

molecular target: Triosephosphate isomerase, glycosomal (Trypanosoma cruzi) (UniProt P52270); assay: Inhibition of Trypanosoma cruzi triosephosphate isomerase at 400 uM after 2 hrs
Sequence (P52270 whole entry): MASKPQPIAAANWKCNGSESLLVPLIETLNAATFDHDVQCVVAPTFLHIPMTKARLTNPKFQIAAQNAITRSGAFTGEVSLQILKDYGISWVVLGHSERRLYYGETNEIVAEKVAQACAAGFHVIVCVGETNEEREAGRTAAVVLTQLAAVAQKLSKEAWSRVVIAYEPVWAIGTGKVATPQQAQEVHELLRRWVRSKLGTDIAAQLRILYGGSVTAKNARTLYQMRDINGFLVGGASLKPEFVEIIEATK
Readout Kind: inhibition (%)
Give the number; % is assumed, so skip it.

Previously resolved entries follow.
>>> reading("O=C(N/N=C/c1ccc([N+](=O)[O-])o1)N1CCOCC1")
0
>>> reading("Cc1nncnc1CC(c1ccc([N+](=O)[O-])cc1)[N+]1([O-])CCOCC1 (stereo unspecified)")
38
>>> reading("[O-][n+]1onc2ccc(C=Cc3ccc(Br)cc3)cc21")
22
>>> reading("CC1(C)[N+]([O-])=c2ccc(C3OCCO3)cc2=[N+]1[O-]")
36

q: I would be grateful if you could share the reported inhibition for [O-][n+]1onc(-c2ccccc2)c1CCl .
a: 65

q: I would be grateful if you could share the reported inhibition for O=C1CC(=O)N(CCc2ccccc2)S(=O)(=O)N1CCc1ccccc1 .
a: 0

* * *

biological target: Triosephosphate isomerase, glycosomal (Trypanosoma cruzi) (UniProt P52270); experiment: Inhibition of Trypanosoma cruzi triosephosphate isomerase at 400 uM after 2 hrs
Readout Kind: inhibition (%)
Give the number; % is assumed, so skip it.

Previously resolved entries follow.
>>> reading("O=c1c2cc([N+](=O)[O-])ccc2n2n1CCOCC2")
12
>>> reading("Nc1ccc2c(c1)[n+]([O-])c1cc(Br)ccc1[n+]2[O-]")
59
>>> reading("CCCCNC(=O)N/N=C/C=C/c1ccc([N+](=O)[O-])o1")
1

q: GET /values?readout=inhibition&system=Triosephosphate isomerase, glycosomal (Trypanosoma cruzi) (UniProt P52270)&item= C=CCNC(=S)N/N=C/c1ccc([N+](=O)[O-])o1
a: 6

q: GET /values?readout=inhibition&system=Triosephosphate isomerase, glycosomal (Trypanosoma cruzi) (UniProt P52270)&item= COC(=O)N/N=C/c1ccc2no[n+]([O-])c2c1
a: 3
